# Test system: Botulinum neurotoxin type F light chain protease (Clostridium botulinum)
# Experiment: Botulinum neurotoxin type F light chain protease inhibition, multiplex microsphere flow cytometry, validation set (AID 588459)
# Experimental context: multiplex microsphere protease substrate cleavage assay, at 10 µM, hits give high values
Where a SMILES comes first, the peptide text is derived from it.
Measurement type: inhibition (%)
Answers are plain numbers, in %.

Some compounds with known inhibition results, for comparison:
C/C(=N/N1CCN(Cc2cccc3ccccc23)CC1)c1cccnc1; 6.2
CCN1C(=O)C(CC(=O)Nc2ccc(F)cc2)N(Cc2ccc3c(c2)OCO3)C1=S (configuration not stated); -1.3
C[N+]1(C)CCN(c2ccccc2)CC1; -7.6

Provide reported inhibition for each item, in the same order as listed.
1. CCn1cc(C(=O)O)c(=O)c2ccc(C)nc21
2. CN(C)C(=O)CCCCCCCCC(=O)N(C)C
3. C=CCNC(=O)c1ccc(-c2cccc([N+](=O)[O-])c2)o1
4. CC[C@]1(O)C[C@@H]2CN(CCc3c([nH]c4ccccc34)[C@@](C(=O)OC)(c3cc4c(cc3OC)N(C)[C@H]3[C@@](O)(C(=O)OC)[C@H](OC(C)=O)[C@]5(CC)C=CCN6CC[C@]43[C@@H]65)C2)C1
5. CCCc1c(OCCCCc2nn[nH]n2)ccc(C(C)=O)c1O
6. COc1cc(CNc2ccc(C)c(C)c2)cc(OC)c1OC
7. O=c1c2[nH]c3ccccc3c2ncn1CCC1=CCCCC1

OUTPUT:
[1.3, -2.7, -1.3, 16.1, -1.3, 1.8, 4.3]

Provide reported inhibition for each item, in the same order as listed.
1. CC(=O)[C@@H]1[C@@H](C(=O)c2ccc(C)cc2)[C@]2(C(=O)Nc3ccccc32)[C@H]2C=Cc3cc(F)ccc3N12
2. CC(C)C(=O)Nc1ccc(S(=O)(=O)N2CC3CC(C2)c2cccc(=O)n2C3)cc1 (configuration not stated)
3. CCOC(=O)[C@H]1O[C@@H]1C(=O)N[C@@H](CC(C)C)C(=O)NCCC(C)C
4. COc1cc(COc2ccc3c(C)c(Cc4ccccc4)c(=O)oc3c2)cc(OC)c1OC
5. O=C(O)C1CCN(C(=O)COc2ccc3c4c(c(=O)oc3c2)CCC4)CC1

OUTPUT:
[2.2, 4.8, 1.7, 3.5, 3]

Provide reported inhibition for each item, in the same order as listed.
1. CC(=O)NC(CC(C)C)C(=O)NC(Cc1ccccc1)C(N)=O (stereo not drawn) (Ac-Leu-Phe-NH2; configuration not given here)
2. C=CCc1ccccc1OCC(O)CNC(C)C (configuration not stated)
3. Nc1c(C(=O)c2ccccc2)oc2ccccc12
4. Cc1cc(C)c2c(CCl)cc(=O)oc2c1
5. O=c1cc(-c2ccccc2)oc2cc(OCc3ccccc3)cc(O)c12
6. CC(NC(=O)c1cccnc1)C(=O)O (configuration not stated)

OUTPUT:
1. 3.1
2. -1
3. 1.8
4. -4.3
5. -0.8
6. -0.3

INPUT: Give inhibition for the following compound: NCCc1ccc(O)cc1
OUTPUT: 5.4
